Cited source for all entries: patent US9073820B2

- assay remarks: Pharmacokinetics of Compound 4 in mice (IV and PO)
- Assay type: in vivo, BALB/c nude female mice
- test parameters: female, BALB/c nude, mouse, plasma, intravenous, 2 mg/kg, 2 mg/kg IV, 8 hr, G1; read-out: Plasma concentration G1
metric name: concentration at 8 hr (µg/mL)
# number only, unit µg/mL dropped from output

Query string: Consider the molecule NCCCOc1cc2ccccc2cc1C(=O)NCCCOc1cc2ccccc2cc1C(=O)Nc1ccc(Cl)cc1O and give its measured concentration at 8 hr.
Result string: 0.0302

----------
- assay remarks: Pharmacokinetics of Compound 4 in mice (IV and PO)
- Format: in vivo, BALB/c nude female mice
- test parameters: female, BALB/c nude, mouse, plasma, oral, 20 mg/kg, 20 mg/kg PO, 1 hr, G4; read-out: Plasma concentration G4
metric name: concentration at 1 hr (ng/mL)
Reply numerically in ng/mL, unit not repeated.

Query string: Entry under review: NCCCOc1cc2ccccc2cc1C(=O)NCCCOc1cc2ccccc2cc1C(=O)Nc1ccc(Cl)cc1O . Reported concentration at 1 hr?
Result string: 402
